Molecular target: T1, IL13RA1
T1 construct: coated protein in the ELISA; also called IL13RA1-Fc-His (R&D Systems)
T1 chain: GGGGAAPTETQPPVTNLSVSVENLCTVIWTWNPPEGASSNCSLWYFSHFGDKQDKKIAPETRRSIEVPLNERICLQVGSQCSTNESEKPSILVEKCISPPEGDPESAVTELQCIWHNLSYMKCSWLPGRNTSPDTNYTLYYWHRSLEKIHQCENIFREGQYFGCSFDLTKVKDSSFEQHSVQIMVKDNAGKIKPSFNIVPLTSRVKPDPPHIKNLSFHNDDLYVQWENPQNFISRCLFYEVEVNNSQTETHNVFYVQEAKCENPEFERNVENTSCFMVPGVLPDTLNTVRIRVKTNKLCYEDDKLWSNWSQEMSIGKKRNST
Assay: ELISA on coated IL13RA1-Fc-His, 150 ng IgG1; None 0.094
PARAMETER: ELISA Absorbance (405 nm-570 nm)
Give bare numbers.

Please give ELISA Absorbance (405 nm-570 nm), item by item, for the list that follows.
1. HW-42 chimeric rabbit-human IgG1 LA/LA/PG (antibody, V domains shown, Fc-silenced (L234A/L235A/P329G) IgG1, lambda; Alexa Fluor 647-labeled in single-step flow cytometry; Cluster C-1) VH: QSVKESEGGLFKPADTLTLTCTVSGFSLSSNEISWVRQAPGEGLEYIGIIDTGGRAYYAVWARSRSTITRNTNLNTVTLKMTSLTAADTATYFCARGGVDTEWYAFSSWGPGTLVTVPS VL: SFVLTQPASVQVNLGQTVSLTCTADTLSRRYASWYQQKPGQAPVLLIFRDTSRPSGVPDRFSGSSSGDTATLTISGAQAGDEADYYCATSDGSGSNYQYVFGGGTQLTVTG
2. HW-8 chimeric rabbit-human IgG1 LA/LA/PG (antibody, V domains shown, Fc-silenced (L234A/L235A/P329G) IgG1, kappa; Alexa Fluor 647-labeled in single-step flow cytometry; Cluster C-45) VH: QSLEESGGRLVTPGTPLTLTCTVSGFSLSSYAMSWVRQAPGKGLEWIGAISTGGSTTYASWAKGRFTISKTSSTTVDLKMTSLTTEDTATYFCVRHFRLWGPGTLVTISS VL: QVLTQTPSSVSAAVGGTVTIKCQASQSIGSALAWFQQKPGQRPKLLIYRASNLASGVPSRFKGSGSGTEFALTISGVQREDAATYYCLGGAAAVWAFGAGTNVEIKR
3. HW-1 chimeric rabbit-human IgG1 LA/LA/PG (antibody, V domains shown, Fc-silenced (L234A/L235A/P329G) IgG1, lambda; Alexa Fluor 647-labeled in single-step flow cytometry; Prototype of cluster C-1) VH: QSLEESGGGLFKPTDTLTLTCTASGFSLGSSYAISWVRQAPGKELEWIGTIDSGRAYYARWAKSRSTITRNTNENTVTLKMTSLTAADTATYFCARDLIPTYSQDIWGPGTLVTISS VL: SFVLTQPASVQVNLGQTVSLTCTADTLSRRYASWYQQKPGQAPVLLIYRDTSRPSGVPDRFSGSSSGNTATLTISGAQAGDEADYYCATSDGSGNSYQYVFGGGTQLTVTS

Reply:
0.102
0.077
0.08
